Just for reference, patent US20230416248A1 is where these values come from.

# testedSystem: BRG-1 (Homo sapiens, UniProt P51532)
# Construct: made in house; host or cells: High Five insect cells
# Sequence (P51532 whole entry): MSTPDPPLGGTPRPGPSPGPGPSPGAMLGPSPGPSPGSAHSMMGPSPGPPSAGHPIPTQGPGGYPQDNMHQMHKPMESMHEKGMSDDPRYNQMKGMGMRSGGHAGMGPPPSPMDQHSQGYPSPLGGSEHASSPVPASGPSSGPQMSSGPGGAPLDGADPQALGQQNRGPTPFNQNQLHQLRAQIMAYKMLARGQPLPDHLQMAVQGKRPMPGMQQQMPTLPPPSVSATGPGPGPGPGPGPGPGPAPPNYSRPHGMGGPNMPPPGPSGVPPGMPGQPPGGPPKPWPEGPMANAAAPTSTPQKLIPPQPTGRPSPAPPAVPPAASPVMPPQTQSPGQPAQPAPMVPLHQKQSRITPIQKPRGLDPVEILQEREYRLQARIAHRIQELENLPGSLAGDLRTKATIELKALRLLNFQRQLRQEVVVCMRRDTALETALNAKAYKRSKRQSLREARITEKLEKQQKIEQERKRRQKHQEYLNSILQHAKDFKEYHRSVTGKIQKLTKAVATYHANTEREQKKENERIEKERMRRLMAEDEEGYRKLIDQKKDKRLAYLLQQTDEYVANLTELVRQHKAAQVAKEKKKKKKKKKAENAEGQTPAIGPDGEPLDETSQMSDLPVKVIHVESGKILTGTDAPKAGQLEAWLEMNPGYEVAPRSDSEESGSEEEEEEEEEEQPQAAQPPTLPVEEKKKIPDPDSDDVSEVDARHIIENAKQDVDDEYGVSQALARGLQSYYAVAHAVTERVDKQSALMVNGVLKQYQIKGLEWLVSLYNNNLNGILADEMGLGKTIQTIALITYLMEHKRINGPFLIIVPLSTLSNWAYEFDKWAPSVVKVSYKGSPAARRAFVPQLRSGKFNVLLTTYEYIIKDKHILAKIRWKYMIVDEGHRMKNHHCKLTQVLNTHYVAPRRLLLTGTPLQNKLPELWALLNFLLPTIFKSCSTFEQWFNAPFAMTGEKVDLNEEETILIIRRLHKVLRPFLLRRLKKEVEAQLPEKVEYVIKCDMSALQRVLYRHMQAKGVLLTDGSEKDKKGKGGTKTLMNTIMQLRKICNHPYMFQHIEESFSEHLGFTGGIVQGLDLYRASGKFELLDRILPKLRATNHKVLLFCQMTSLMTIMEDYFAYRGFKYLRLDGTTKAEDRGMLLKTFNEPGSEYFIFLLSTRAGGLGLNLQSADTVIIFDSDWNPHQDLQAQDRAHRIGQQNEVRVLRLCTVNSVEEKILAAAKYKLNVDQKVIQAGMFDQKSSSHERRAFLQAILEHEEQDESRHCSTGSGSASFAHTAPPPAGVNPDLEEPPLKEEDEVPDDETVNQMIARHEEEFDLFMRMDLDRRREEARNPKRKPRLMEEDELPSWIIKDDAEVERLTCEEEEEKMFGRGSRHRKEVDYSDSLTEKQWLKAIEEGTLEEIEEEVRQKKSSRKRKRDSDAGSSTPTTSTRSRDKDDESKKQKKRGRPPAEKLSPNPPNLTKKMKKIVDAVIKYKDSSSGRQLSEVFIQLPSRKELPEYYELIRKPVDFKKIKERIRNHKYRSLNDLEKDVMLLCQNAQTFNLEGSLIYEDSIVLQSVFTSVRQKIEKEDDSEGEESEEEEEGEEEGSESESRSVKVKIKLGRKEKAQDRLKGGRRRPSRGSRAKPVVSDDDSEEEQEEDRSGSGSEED
# assayComment: ATPase catalytic activity of BRG-1, ADP-Glo in vitro biochemical assay
# measurementContext: ADP-Glo ATPase assay, 30 nM BRG-1, 400 μM ATP; read-out: BRG1 IC50
Output Yes for records whose IC50 is lower than 200 nM, No for records at or above 200 nM.

Before answering, review these 2 worked examples.
INSERT INTO results (compound, testedsystem, categorylabel) VALUES
  ('[2H]C1([2H])OC([2H])([2H])[C@H](C)S(=O)(=O)c2cc(C(=O)NCc3cc4nc(N5CCOc6cc(C)cnc65)ccc4cn3)ccc21', 'BRG-1 (Homo sapiens, UniProt P51532)', 'Yes'),
  ('CC(c1cccc(-c2ccc3cnc(CNC(=O)c4ccc5c(c4)S(=O)(=O)CCOC5)cc3n2)n1)C(F)F (stereo not shown)', 'BRG-1 (Homo sapiens, UniProt P51532)', 'No');

Q. IC50 under 200 nM? Item: COc1ccc2c(c1F)N(c1ccc3cnc(CNC(=O)c4ccc5c(c4)S(=O)(=O)CCOC5)cc3n1)CCO2
A. Yes

Q. IC50 under 200 nM? Item: O=C(NCc1cc2nc(N3CCC4(CCC4)c4cccnc43)ccc2cn1)c1ccc2c(c1)S(=O)(=O)CCOC2
A. No

Q. IC50 under 200 nM? Item: O=C(NCc1cc2nc(N3CCOc4ccc(C(F)CF)nc43)ccc2cn1)c1ccc2c(c1)S(=O)(=O)CCOC2 (stereo not shown)
A. No

Q. IC50 under 200 nM? Item: C[C@@H]1CN(c2nccc(-c3ccc4cnc(CNC(=O)c5ccc(C(F)F)c(S(C)(=O)=O)c5)cc4n3)n2)C[C@H](C)O1
A. No

----------
# testedSystem: BRM (Homo sapiens)
# Construct: made in house; host or cells: High Five insect cells
# assayComment: ATPase catalytic activity of BRM, ADP-Glo in vitro biochemical assay
# measurementContext: ATPase catalytic activity, ADP-Glo; 30 nM BRM, 400 μM ATP
Output YES for records whose IC50 is lower than 20 nM, NO for records at or above 20 nM.

INSERT INTO results (molecule, categorylabel) VALUES
  ('C[C@H]1COCc2c(F)cc(C(=O)NCc3cc4nc(-c5cccc(C6CC6)n5)ccc4cn3)cc2S1(=O)=O', 'YES');

Q. IC50 under 20 nM? Item: COC[C@H]1C[C@@H]1N(C)c1cccc(-c2ccc3cnc(CNC(=O)c4ccc5c(c4)S(=O)(=O)CCOC5)cc3n2)n1
A. NO

Q. IC50 under 20 nM? Item: CC1COc2ccc(-c3ccc4cnc(CNC(=O)c5ccc6c(c5)S(=O)(=O)CCOC6)cc4n3)nc2N1C (stereo not shown)
A. NO

Q. IC50 under 20 nM? Item: Cn1ncc2c1CCCN2c1ccc2cnc(CNC(=O)c3ccc4c(c3)S(=O)(=O)CCOC4)cc2n1
A. NO

Q. IC50 under 20 nM? Item: Cc1cnc2c(c1)OCCN2c1ccc2cnc(CNC(=O)c3cc(F)c4c(c3)S(=O)(=O)CCOC4)cc2n1
A. YES

Q. IC50 under 20 nM? Item: O=C(NCc1cc2nc(N3CCOc4ccc(C5CC5)cc43)ccc2cn1)c1ccc2c(c1)S(=O)(=O)CCOC2
A. YES

Q. IC50 under 20 nM? Item: CO[C@H]1CCS(=O)(=O)c2cc(C(=O)NCc3cc4nc(-c5cccc(N6C[C@@H](C)O[C@@H](C)C6)n5)ccc4cn3)ccc2C1
A. YES

----------
# testedSystem: BRG-1 (Homo sapiens)
# Construct: made in house; host or cells: High Five insect cells
# assayComment: ATPase catalytic activity of BRG-1, ADP-Glo in vitro biochemical assay
# measurementContext: ADP-Glo ATPase assay, 30 nM BRG-1, 400 μM ATP; read-out: BRG1 IC50
pIC50: −log10 of the molar value.
Output Y for pIC50 not less than 6; output N otherwise.

INSERT INTO results (compound, categorylabel) VALUES
  ('O=C(NCc1cc2nc(-c3cccc(N4CCCC4)n3)ccc2cn1)c1ccc2c(c1)S(=O)(=O)CCOC2 [Compound 220]', 'Y'),
  ('O=C(NCc1cc2nc(N3CCOc4nc(C5CC5)ccc43)ccc2cn1)c1ccc2c(c1)S(=O)(=O)CCOC2 [Compound 843]', 'Y'),
  ('O=C(NCc1cc2nc(-c3cccc(N4CCC(F)(F)C4)n3)ccc2cn1)c1ccc2c(c1)S(=O)(=O)CCOC2 [Compound 202]', 'Y');

From here, focus on the item given below.
Q. Check this compound for pIC50 at or above 6: COCCN1CCOc2c(-c3ccc4cnc(CNC(=O)c5ccc(Cl)c(S(C)(=O)=O)c5)cc4n3)cccc21 [Compound 88]
A. Y

----------
# IC50 annotations
# testedSystem: BRG-1 (Homo sapiens)
# Construct: made in house; host or cells: High Five insect cells
# assayComment: ATPase catalytic activity of BRG-1, ADP-Glo in vitro biochemical assay
# measurementContext: ADP-Glo ATPase assay, 30 nM BRG-1, 400 μM ATP; read-out: BRG1 IC50
Reply with just the number (in µM).

Check out these entries, answers already filled in.
INSERT INTO assay_data (compoundsmiles, unitname, measuredvalue) VALUES
  ('C[C@@H]1CN(c2ccc(F)c(-c3ccc4cnc(CNC(=O)c5ccc6c(c5)S(=O)(=O)CCOC6)cc4n3)n2)C[C@H](C)O1', 'µM', 0.206),
  ('COCCN(C)c1cccc(-c2ccc3cnc(CNC(=O)c4ccc(Cl)c(S(C)(=O)=O)c4)cc3n2)n1', 'µM', 0.324),
  ('O=C(NCc1cc2cc(-c3cncc(C4CC4)n3)ccc2cn1)c1cnc2c(c1)S(=O)(=O)CCOC2', 'µM', 0.59),
  ('COc1nn([C@H]2C[C@@H](F)C2)cc1-c1ccc2cnc(CNC(=O)c3ccc4c(c3)S(=O)(=O)CCOC4)cc2c1', 'µM', 2.46),
  ('CN(CC(F)F)c1cccc(-c2ccc3cnc(CNC(=O)c4ccc5c(c4)S(=O)(=O)CCOC5)cc3n2)n1', 'µM', 0.236);

IC50 reading for O=C(NCc1cc2cc(N3CCOc4cc(C5CC5)cnc43)cnc2cn1)c1ccc2c(c1)S(=O)(=O)CCOC2 : 1.44

IC50 reading for C[C@@H]1CN(c2cccc(-c3ccc4cnc(CNC(=O)c5cccc(S(C)(=O)=O)c5Cl)cc4n3)n2)C[C@H](C)O1 : 5

----------
# testedSystem: BRM (Homo sapiens, UniProt P51531)
# Construct: made in house; host or cells: High Five insect cells
# Sequence (P51531 whole entry): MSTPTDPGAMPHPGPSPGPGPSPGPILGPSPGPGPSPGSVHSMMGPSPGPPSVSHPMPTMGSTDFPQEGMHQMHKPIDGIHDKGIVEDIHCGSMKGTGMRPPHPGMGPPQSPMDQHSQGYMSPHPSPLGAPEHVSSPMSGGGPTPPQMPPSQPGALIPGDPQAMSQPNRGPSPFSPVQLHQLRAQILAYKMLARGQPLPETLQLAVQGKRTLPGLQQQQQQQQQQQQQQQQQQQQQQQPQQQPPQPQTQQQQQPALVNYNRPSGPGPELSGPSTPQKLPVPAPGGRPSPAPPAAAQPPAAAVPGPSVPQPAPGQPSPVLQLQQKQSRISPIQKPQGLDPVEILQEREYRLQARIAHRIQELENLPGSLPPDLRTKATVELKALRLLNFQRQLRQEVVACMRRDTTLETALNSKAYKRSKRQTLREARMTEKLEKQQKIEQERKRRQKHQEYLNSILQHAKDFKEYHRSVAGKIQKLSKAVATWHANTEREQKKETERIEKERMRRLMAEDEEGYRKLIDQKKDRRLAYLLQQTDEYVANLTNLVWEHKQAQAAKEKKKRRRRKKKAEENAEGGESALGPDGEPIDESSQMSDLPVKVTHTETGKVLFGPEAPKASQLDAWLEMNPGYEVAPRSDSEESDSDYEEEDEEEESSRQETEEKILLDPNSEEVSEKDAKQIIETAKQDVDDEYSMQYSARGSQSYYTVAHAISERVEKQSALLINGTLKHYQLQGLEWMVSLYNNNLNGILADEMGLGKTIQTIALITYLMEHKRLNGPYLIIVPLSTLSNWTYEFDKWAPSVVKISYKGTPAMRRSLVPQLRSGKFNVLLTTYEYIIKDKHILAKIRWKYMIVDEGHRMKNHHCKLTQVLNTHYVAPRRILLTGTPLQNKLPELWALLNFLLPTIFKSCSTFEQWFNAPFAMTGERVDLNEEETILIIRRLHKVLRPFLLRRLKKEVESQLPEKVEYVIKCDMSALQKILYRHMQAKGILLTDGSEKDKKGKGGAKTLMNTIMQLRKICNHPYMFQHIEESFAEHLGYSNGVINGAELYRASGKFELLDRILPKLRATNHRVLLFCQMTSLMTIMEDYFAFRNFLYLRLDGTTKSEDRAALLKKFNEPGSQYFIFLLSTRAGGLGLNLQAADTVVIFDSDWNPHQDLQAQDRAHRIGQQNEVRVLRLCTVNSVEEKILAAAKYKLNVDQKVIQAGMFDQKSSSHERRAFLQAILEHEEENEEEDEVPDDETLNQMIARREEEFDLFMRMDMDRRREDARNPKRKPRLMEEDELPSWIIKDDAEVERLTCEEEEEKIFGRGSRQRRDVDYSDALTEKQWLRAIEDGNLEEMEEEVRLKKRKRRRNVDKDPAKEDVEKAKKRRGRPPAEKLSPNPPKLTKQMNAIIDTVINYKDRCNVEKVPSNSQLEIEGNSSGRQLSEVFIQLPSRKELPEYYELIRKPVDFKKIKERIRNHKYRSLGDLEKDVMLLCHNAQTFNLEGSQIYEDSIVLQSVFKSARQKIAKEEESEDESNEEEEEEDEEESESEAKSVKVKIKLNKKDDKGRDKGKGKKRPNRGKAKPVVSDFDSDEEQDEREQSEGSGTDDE
# assayComment: ATPase catalytic activity of BRM, ADP-Glo in vitro biochemical assay
# measurementContext: ATPase catalytic activity, ADP-Glo; 30 nM BRM, 400 μM ATP
# pIC50 annotations
The scale used: pIC50 is minus the common logarithm of the concentration in molar units.

Check out these entries, answers already filled in.
INSERT INTO results (compound, testedsystem, measuredattribute, measuredvalue) VALUES
  ('CC1CCc2ccc(-c3ccc4cnc(CNC(=O)c5ccc6c(c5)S(=O)(=O)CCOC6)cc4n3)nc2N1C1CC1 (stereo not shown) [Compound 425]', 'BRM (Homo sapiens, UniProt P51531)', 'pIC50', 7.00),
  ('O=C(NCc1cc2nc(N3CCOc4ccc(C(F)F)nc43)ccc2cn1)c1ccc2c(c1)S(=O)(=O)CCOC2 [Compound 594]', 'BRM (Homo sapiens, UniProt P51531)', 'pIC50', 7.43),
  ('O=C(NCc1cc2nc(N3CCCc4ccc(OC(F)F)nc43)ccc2cn1)c1ccc2c(c1)S(=O)(=O)CCOC2 [Compound 643]', 'BRM (Homo sapiens, UniProt P51531)', 'pIC50', 6.97),
  ('O=C(NCc1cc2nc(N3CCCc4ccc(OC5COC5)cc43)ccc2cn1)c1ccc2c(c1)S(=O)(=O)CCOC2 [Compound 692]', 'BRM (Homo sapiens, UniProt P51531)', 'pIC50', 8.22),
  ('COC1(CN(C)c2cccc(-c3ccc4cnc(CNC(=O)c5ccc6c(c5)S(=O)(=O)CCOC6)cc4n3)n2)CC1 [Compound 323]', 'BRM (Homo sapiens, UniProt P51531)', 'pIC50', 7.77),
  ('Cc1ccc2c(c1)CCCN2c1ccc2cnc(CNC(=O)c3ccc4c(c3)S(=O)(=O)CCOC4)cc2n1 [Compound 350]', 'BRM (Homo sapiens, UniProt P51531)', 'pIC50', 8.09);

Shifting focus to the compound that follows.
pIC50 reading for O=C(NCc1cc2nc(N3CCC4(CC4)c4cccnc43)ccc2cn1)c1ccc2c(c1)S(=O)(=O)CCOC2 [Compound 600] : 7.88

----------
# IC50 annotations
# testedSystem: BRG-1 (Homo sapiens, UniProt P51532)
# Construct: made in house; host or cells: High Five insect cells
# assayComment: ATPase catalytic activity of BRG-1, ADP-Glo in vitro biochemical assay
# measurementContext: ATPase catalytic activity, ADP-Glo; 30 nM BRG-1, 400 μM ATP; read-out: BRG1 IC50
Reply with just the number (in nM).

Check out these entries, answers already filled in.
INSERT INTO assay_data (compound, unitname, measuredvalue) VALUES
  ('CCOC1CCS(=O)(=O)c2cc(C(=O)NCc3cc4nc(-c5cccc(N6CC(C)OC(C)C6)n5)ccc4cn3)ccc2C1 (stereo not shown)', 'nM', 189),
  ('COc1cc2c(nc1C1CC1)N(c1ccc3cnc(CNC(=O)c4ccc5c(c4)S(=O)(=O)CCOC5)cc3n1)CCC2', 'nM', 795);

IC50 reading for COC[C@H]1CCc2ccc(-c3ccc4cnc(CNC(=O)c5ccc6c(c5)S(=O)(=O)CCOC6)cc4n3)nc2N1C : 293

IC50 reading for Cc1ccc2c(n1)N(c1ccc3cnc(CNC(=O)c4ccc5c(c4)S(=O)(=O)[C@@H](C)COC5)cc3c1)CCO2 : 969
